responders at 96 mg/kg/day values for the molecules below.
# Tested on: multidrug resistant strain of Plasmodium yoelii Nigeriensis
# assay: Antimalarial activity against multidrug resistant P. yoelii in Swiss mice (4-day treatment, observed till day 28)
# Format: in vivo
# details: Plasmodium yoelii, im, 672 h, Swiss mice, 96 mg/kg/day, im, day 0-3; read-out: Mice alive on day-28 (converted)
metric_name: responders at 96 mg/kg/day

                                   molecule                 metric_name  result
0  C=C(c1ccc(Cl)cc1)C1COC2(CCC(Nc3cccc(C(F)(F)F)c3)CC2)OO1 (stereo not shown) [Compound 4co]  responders at 96 mg/kg/day      0%
1  C=C(c1ccc(C)cc1)C1COC2(CCC(Nc3ccc(OC)cc3)CC2)OO1 (stereo not shown) [Compound 4eb]  responders at 96 mg/kg/day      0%
2  C=C(c1ccc(OC)cc1)C1COC2(CCC(Nc3ccc(Cl)cc3)CC2)OO1 (stereo not shown) [Compound 4dc]  responders at 96 mg/kg/day     80%
3  C=C(c1ccc(OC)cc1)C1COC2(CCC(Nc3ccccc3)CC2)OO1 (stereo not shown) [Compound 4da]  responders at 96 mg/kg/day      0%
4  C=C(c1ccccc1)C1COC2(CCC(Nc3ccc(Cl)cc3)CC2)OO1 (stereo not shown) [Compound 4aa]  responders at 96 mg/kg/day     40%
5  C=C(c1ccc(C)cc1)C1COC2(CCC(Nc3ccccc3)CC2)OO1 (stereo not shown) [Compound 4ea]  responders at 96 mg/kg/day      0%
6  C=C(c1ccccc1)C1COC2(CCC(Nc3cccc(C(F)(F)F)c3)CC2)OO1 (stereo not shown) [Compound 4ah]  responders at 96 mg/kg/day      0%
7  C=C(c1ccc(C)cc1)C1COC2(CCC(Nc3ccc(-c4ccccc4)cc3)CC2)OO1 (stereo not shown) [Compound 4ej]  responders at 96 mg/kg/day      0%
8  C=C(c1ccc(OC)cc1)C1COC2(CCC(Nc3cccc(C(F)(F)F)c3)CC2)OO1 (stereo not shown) [Compound 4dm]  responders at 96 mg/kg/day      0%
9  C=C(c1ccccc1)C1COC2(CCC(Nc3ccccc3-c3ccccc3)CC2)OO1 (stereo not shown) [Compound 4ac]  responders at 96 mg/kg/day      0%

* * *

# System: multidrug resistant strain of Plasmodium yoelii Nigeriensis
# assay: Antimalarial activity against multidrug resistant P. yoelii in Swiss mice (4-day treatment, observed till day 28)
# Assay type: in vivo
# details: Plasmodium yoelii, po, 672 h, Swiss mice, 24 mg/kg/day, oral, day 0-3; read-out: Mice alive on day-28 (converted)
Label key: class 1 means responders at 24 mg/kg/day under 40%; class 0 means responders at 24 mg/kg/day of 40% or more.

In [3]: df
Out[3]:
                                   compound    label
0  C=C(c1ccccc1)C1COC2(CCC(Nc3ccc(-c4ccccc4)cc3)CC2)OO1 (centres unmarked) [Compound 4ad]  class 0
1  C=C(c1ccccc1)C1COC2(CCC(Nc3cccc(C(F)(F)F)c3)CC2)OO1 (centres unmarked) [Compound 4ah]  class 1
2  C=C(c1ccc(OC)cc1)C1COC2(CCC(Nc3ccc(Cl)cc3)CC2)OO1 (centres unmarked) [Compound 4dc]  class 0
3  C=C(c1ccc(OC)cc1)C1COC2(CCC(Nc3cccc(C(F)(F)F)c3)CC2)OO1 (centres unmarked) [Compound 4dm]  class 0
4  C=C(c1ccc(Cl)cc1)C1COC2(CCC(Nc3cccc(C(F)(F)F)c3)CC2)OO1 (centres unmarked) [Compound 4co]  class 0
